biological target: T1, crayfish astacin (European freshwater crayfish Astacus …, UniProt P07584 50-251); assay: enzyme inhibition assay (fluorogenic substrate), Ki by Morrison's equation; fetuin-B variant titrated against enzyme; 37°C, 150 mM sodium chloride, 50 mM Tris-HCl pH 7.4, 0.01% Brij 35, triplicate; enzyme and substrate 1.0 nM and 195 µM for astacin, 0.5 nM and 26 µM for meprin β, 0.7 nM and 26 µM for ovastacin; details: both partners purified
T1 construct: astacin, Astacus astacus, UniProt P07584; Carries a catalytic zinc ion; also called archetypal astacin; source: purified from the digestive fluid of the European freshwater crayfish Astacus astacus L
T1 sequence (P07584 50-251): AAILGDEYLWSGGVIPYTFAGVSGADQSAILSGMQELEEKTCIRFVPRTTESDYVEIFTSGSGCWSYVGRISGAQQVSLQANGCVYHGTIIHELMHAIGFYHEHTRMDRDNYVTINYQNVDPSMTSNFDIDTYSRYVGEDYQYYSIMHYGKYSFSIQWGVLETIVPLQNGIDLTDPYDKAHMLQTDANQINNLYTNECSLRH
Below, each entry is listed alongside its reported loss of inhibitory potency (change of Ki) against wild-type mouse fetuin-B.
PROPERTY_MEASURED: loss of inhibitory potency (change of Ki) against wild-type mouse fetuin-B

{"columns": ["BINDER", "MEASUREMENT"],
 "data": [
  ["mouse fetuin-B D156A (natural protein, UniProt Q9QXC1 19-388, looked up, also called mFB_(D156A); source: ExpiCHO-S cells, purified (Ni-NTA)) RSPPAPPLPQRPLSPLHPLGCNDSEVLAVAGFALQNINRDQKDGYMLSLNRVHDVREHYQEDMGSLFYLTLDVLETDCHVLSRKAQKDCKPRMFYESVYGQCKAMFHINKPRRVLYLPAYNCTLRPVSKRKTHTTCPACPSPIDLSNPSALEAATESLAKFNSKSPSKKYELVKVTKAMNQWVSGPAYYVEYLIKEAPCTKSQASCSLQHSDSEPVGICQGSTVQSSLRHVPLIQPVEKSVTVTCEFFESQAQVPGDENPAVTQGPQKLPQKNTAPTSSPSVTAPRGSIQHLPELDDEKPEESKGGSPEEAFPVQLDLTTNPQGDTLDVSFLYLEPGDKKLVVLPFPGKEQRSAECPGPEKENNPLVLPP", "~2 orders of magnitude"],
  ["chimeric mutant mFBABA (other, mouse, UniProt P29699 19-136, looked up, mouse fetuin-A CY1 domain, UniProt P29699, residues A19-P136; mouse fetuin-B CY2 domain with linker, UniProt Q9QXC1, residues V145-Q269; mouse fetuin-A CTR domain, UniProt P29699, residues P254-I345; also called chimera of mouse fetuin-B with CY1 and CTR from mouse fetuin-A; source: adenovirus-infected COS-7 cells, purified (Ni-NTA)) APQGTGLGFRELACDDPEAEQVALLAVDYLNNHLLQGFKQVLNQIDKVKVWSRRPFGVVYEMEVDTLETTCHALDPTPLANCSVRQLTEHAVEGDCDFHILKQDGQFRVMHTQCHSTPVSKRKTHTTCPDCPSPIDLSNPSALEAATESLAKFNSKSPSKKYELVKVTKAMNQWVSGPAYYVEYLIKEAPCTKSQASCSLQHSDSEPVGICQGSTVQSSLRHVPLIQPVEKSVTVTCEFFESQPQPANANAVGPVPTANAALPADPPASVVVGPVVVPRGLSDHRTYHDLRHAFSPVASVESASGETLHSPKVGQPGAAGPVSPMCPGRIRHFKI", "> 3 orders of magnitude"],
  ["mouse fetuin-B P155A+D156A (natural protein, UniProt Q9QXC1 19-388, looked up, also called mFB_(P155A,D156A); double mutant; source: ExpiCHO-S cells, purified (Ni-NTA)) RSPPAPPLPQRPLSPLHPLGCNDSEVLAVAGFALQNINRDQKDGYMLSLNRVHDVREHYQEDMGSLFYLTLDVLETDCHVLSRKAQKDCKPRMFYESVYGQCKAMFHINKPRRVLYLPAYNCTLRPVSKRKTHTTCAACPSPIDLSNPSALEAATESLAKFNSKSPSKKYELVKVTKAMNQWVSGPAYYVEYLIKEAPCTKSQASCSLQHSDSEPVGICQGSTVQSSLRHVPLIQPVEKSVTVTCEFFESQAQVPGDENPAVTQGPQKLPQKNTAPTSSPSVTAPRGSIQHLPELDDEKPEESKGGSPEEAFPVQLDLTTNPQGDTLDVSFLYLEPGDKKLVVLPFPGKEQRSAECPGPEKENNPLVLPP", "2 orders of magnitude"],
  ["mouse fetuin-B P155A (natural protein, UniProt Q9QXC1 19-388, looked up, also called mFB_(P155A); source: ExpiCHO-S cells, purified (Ni-NTA)) RSPPAPPLPQRPLSPLHPLGCNDSEVLAVAGFALQNINRDQKDGYMLSLNRVHDVREHYQEDMGSLFYLTLDVLETDCHVLSRKAQKDCKPRMFYESVYGQCKAMFHINKPRRVLYLPAYNCTLRPVSKRKTHTTCADCPSPIDLSNPSALEAATESLAKFNSKSPSKKYELVKVTKAMNQWVSGPAYYVEYLIKEAPCTKSQASCSLQHSDSEPVGICQGSTVQSSLRHVPLIQPVEKSVTVTCEFFESQAQVPGDENPAVTQGPQKLPQKNTAPTSSPSVTAPRGSIQHLPELDDEKPEESKGGSPEEAFPVQLDLTTNPQGDTLDVSFLYLEPGDKKLVVLPFPGKEQRSAECPGPEKENNPLVLPP", "~1 orders of magnitude"]
]}

Reference for the values: paper PMC6400186
